Provide the reported composite z-score of each item.
- experiment-description: small-molecule microarray binders of probe aLefty2, primary screen, biochemical, biotinylated probe, 635/667 nm fluorescence (AID 1094);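 note: score merges spot fluorescence near 667 nm with spot signal-to-noise ratio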
- test-parameters: higher = more signal
I'd appreciate a reply containing only the number, no unit.

-- ask Provide composite z-score value for the following molecule: CO[C@H]1O[C@H](CO)[C@@H](OC(=O)Nc2ccccc2)[C@H](OC(=O)Nc2ccccc2-c2ccccc2)[C@H]1OC(=O)Nc1ccccc1-c1ccccc1
-- reply -0.0699

-- ask Please look at this molecule and report its composite z-score: C=CC[C@]1(C(=O)N(C)C)N=C(c2ccc(OCCCO)cc2)O[C@H]1c1ccccc1CN=[N+]=[N-]
-- reply 0.186

-- ask Give the reported composite z-score for this molecule. CCOC(=O)C[C@H]1[C@H](OC(=O)c2ccc(-c3ccccc3)cc2)[C@@H](NC(=O)c2ccccc2)c2cc(OCCCO)ccc2N1C(=O)c1ccccc1
-- reply 0.0921

-- ask Answer with the recorded composite z-score of CC(C)C[C@@H]1NC(=O)[C@H]2C[C@@H](C(=O)NCCCC[N+](C)(C)C)[C@@H](c3cccc(OCCO)c3)N2C1=O only.
-- reply -0.348

-- ask Using known records, supply composite z-score for C=C(CCCC)/C(=C/C[C@H](OC(=O)c1ccncc1)c1ccc(CO)o1)c1cnc2ccccc2c1
-- reply -0.0102

-- ask Respond only with composite z-score recorded for COC(=O)C1=CC(c2ccc(CO)cc2)=CC(C2CC2)N(C)C=C1C(=O)OC (stereo not drawn)
-- reply -0.141

-- ask // fetch composite z-score given entry C=C(COC)C(=O)CC[C@@H](OC(=O)c1ccccc1-c1ccccc1C(=O)O)c1cccc(OCCO)c1
-- reply -0.183

-- ask Find the measured composite z-score of COC(=O)C1=CC(CCCO)=CC(C2CC2)N(Cc2cc3c(cc2Br)OCO3)C=C1C(=O)OC (stereo not drawn) and report it.
-- reply 0.392

====

- target-or-test-system: Pro-neuregulin-1, membrane-bound isoform (Homo sapiens) (UniProt Q02297)
- Sequence (Q02297 whole entry, looked up, canonical isoform): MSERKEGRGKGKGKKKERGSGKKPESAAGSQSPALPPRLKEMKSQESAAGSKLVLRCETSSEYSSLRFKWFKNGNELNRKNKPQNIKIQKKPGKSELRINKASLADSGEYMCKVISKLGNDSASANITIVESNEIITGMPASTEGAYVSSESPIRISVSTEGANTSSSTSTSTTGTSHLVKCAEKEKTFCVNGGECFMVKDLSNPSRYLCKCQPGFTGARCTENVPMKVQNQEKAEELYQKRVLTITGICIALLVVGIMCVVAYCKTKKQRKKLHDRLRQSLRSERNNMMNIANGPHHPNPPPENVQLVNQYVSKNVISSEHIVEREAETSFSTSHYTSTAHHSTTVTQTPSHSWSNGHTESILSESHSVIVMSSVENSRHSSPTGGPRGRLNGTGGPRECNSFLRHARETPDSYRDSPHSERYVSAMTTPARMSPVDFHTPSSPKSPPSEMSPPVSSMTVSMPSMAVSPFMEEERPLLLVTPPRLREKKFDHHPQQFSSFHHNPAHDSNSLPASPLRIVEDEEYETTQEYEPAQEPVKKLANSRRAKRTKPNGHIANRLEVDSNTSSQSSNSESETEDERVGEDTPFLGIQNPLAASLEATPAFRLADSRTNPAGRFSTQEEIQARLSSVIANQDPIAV
- experiment-description: NRG1 binders on small-molecule microarrays, primary screen, psychiatric disease protein project, biochemical, small-molecule microarray, fluorescence 635/667 (AID 1075);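 note: score combines 667 nm spot fluorescence with signal to noise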
- test-parameters: NRG1 binding, 635 nm fluorescence, higher = more signal
Would you mind labelling by composite z-score? At or over 1 is T, under is F.

-- ask Does the compound C=CCN1C(=O)[C@@]2(O[C@@H](CCO)[C@H]([Si](C)(C)c3ccc(OC)cc3)[C@H]2C)c2cc(N(C=O)c3ccccc3)ccc21 have recorded composite z-score that is 1 or more?
-- reply F

-- ask Reported composite z-score reaches at least 1 for [N-]=[N+]=NCc1ccccc1C[C@@]1(C(=O)O)N=C(c2ccc(OCCCO)cc2)O[C@@H]1c1ccccc1 ?
-- reply T

-- ask Is it the case that CCCNC(=O)[C@@H]1c2ccccc2C(=O)N(Cc2cc(C(F)(F)F)cc(C(F)(F)F)c2)[C@H]1c1ccc(CO)cc1 has composite z-score reaching or exceeding 1?
-- reply F

-- ask Please tell me: is the compound C=CC[C@@]1(C(=O)NCc2ccccc2)N=C(c2ccc(OCCCO)cc2)O[C@@H]1c1ccccc1 at or over 1 in terms of composite z-score?
-- reply T

-- ask Could you please find out whether C=CCN1C(=O)[C@@]2(O[C@@H](CCO)[C@H]([Si](C)(C)c3ccc(OC)cc3)[C@H]2C)c2cc(N3C(=O)c4cccc5cccc3c45)ccc21 has composite z-score that meets 1 or exceeds it?
-- reply F

-- ask // inclusive: composite z-score at least 1? input: NCCCCCCNC(=O)[C@@H]1C[C@@H]2C(=O)N[C@@H](Cc3ccccc3)C(=O)N2[C@@H]1c1ccc(O)cc1
-- reply T

-- ask Tell me whether composite z-score is at least 1 here: CCN(CC)c1ccc(N2CC=CC34O[C@@H]5C=CCOC(=O)[C@@H]5[C@H]3C(=O)N(C(C)CO)[C@@H]4C2=O)cc1 (some centres not stated)
-- reply F
